TARGET: HIV-C (synthetic construct)
ASSAY COMMENT: ELONA; apparent Kd, phage ELISA, Zn2+
TEST SETTINGS: protein: virion; label: biotin
READOUT NAME: Kd (nM)

HIV-C site (dsDNA) DNA 1: GATGCTGCAT DNA 2: ATGCAGCATC
13.7

These entries and their values trace back to patent US20040039175.
